These measurements were taken from patent US20260242478A1.

Target: Anti-CD28 Fab (SEQ ID NOs: 696, 697)
Sequence (VH, as listed by the source, chain 1 of 2): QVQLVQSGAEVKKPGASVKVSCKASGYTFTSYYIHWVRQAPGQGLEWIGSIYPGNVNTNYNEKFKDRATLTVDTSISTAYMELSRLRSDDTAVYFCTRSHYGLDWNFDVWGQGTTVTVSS
Sequence (VL, as listed by the source, chain 2 of 2): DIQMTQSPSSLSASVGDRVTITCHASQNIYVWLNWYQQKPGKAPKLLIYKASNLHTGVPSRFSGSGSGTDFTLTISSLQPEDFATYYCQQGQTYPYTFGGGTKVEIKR
Assay: phage ELISA, biotinylated anti-CD28 Fab on neutravidin plate, anti-M13 HRP detection
quantityMeasured: Anti-CD28 Fab signal (phage binding ELISA)
Give the figure only, with no unit attached.

According to the records, this binder YCEGHLPQYLAKCL (Clonal phage displaying the peptide; not shown: fused to pIII of the bacteriophage) [Phage-640] displays Anti-CD28 Fab signal (phage binding ELISA) of 2.12

The recorded Anti-CD28 Fab signal (phage binding ELISA) for entry YCDGHSDEYMAKCL (Clonal phage displaying the peptide; not shown: fused to pIII of the bacteriophage) [Phage-635] equals 2.14

For YCDGHSAEYMMKCL (Clonal phage displaying the peptide; not shown: fused to pIII of the bacteriophage) [Phage-642] the binder record lists Anti-CD28 Fab signal (phage binding ELISA) as 2.12

binder YCEGHLPQYIPKCL (Clonal phage displaying the peptide; not shown: fused to pIII of the bacteriophage) [Phage-643] , Anti-CD28 Fab signal (phage binding ELISA) observed: 2.12

Sure, the documented Anti-CD28 Fab signal (phage binding ELISA) for YCAGHLPEYMQKCL (Clonal phage displaying the peptide; not shown: fused to pIII of the bacteriophage) [Phage-632] is 2.15

Lab book: Anti-CD28 Fab signal (phage binding ELISA) of YCEGHLPEYMSKCL (Clonal phage displaying the peptide; not shown: fused to pIII of the bacteriophage) [Phage-631] noted as 2.15

Value of Anti-CD28 Fab signal (phage binding ELISA) reported for the binder YCDGHLGIYMWKCL (Clonal phage displaying the peptide; not shown: fused to pIII of the bacteriophage) [Phage-633] is 2.14

Anti-CD28 Fab signal (phage binding ELISA) reported for this binder YCEGHSLEYIGKCL (Clonal phage displaying the peptide; not shown: fused to pIII of the bacteriophage) [Phage-636] : 2.14
